- assay.overview: in vitro
- run.conditions: African green monkey (Cercopithecus aethiops)
measurement.label: CC50 at 2 days

[[record]]
chemical_smiles = "COc1ccc2c(c1)[nH]c1c(C)[n+](C)ccc12"
reported = "> 500 µM"


---

- assay.overview: MTT cytotoxicity on Vero host cells, 2 days
- run.conditions: African green monkey (Cercopithecus aethiops), CC50, Vero cells, 2 days of treatment (Table 1 footnote a)
measurement.label: CC50 at 2 days

[[record]]
chemical_smiles = "COc1ccc2c(c1)[nH]c1c(C)nccc12"
measurement_label = "CC50 at 2 days"
reported = "~60 µM"


---

- Tested on: T. gondii RH Δhxgprt tachyzoites
- assay.overview: Plaque reduction assay
- Assay type: cell-based, Toxoplasma gondii
- run.conditions: Toxoplasma gondii, Fibroblast, 156 h, read-out: IC50 (number of plaques)
measurement.label: IC50

[[record]]
chemical_smiles = "COc1ccc2c3ccnc(C)c3n(C)c2c1"
measurement_label = "IC50"
reported = "3.1 µM"


---

- Tested on: T. gondii RH RFP tachyzoites
- assay.overview: Lytic cycle growth assay (RFP fluorescence)
- Format: cell-based, Toxoplasma gondii
- run.conditions: Toxoplasma gondii, Fibroblast, 72 h
measurement.label: IC50

[[record]]
chemical_smiles = "COc1ccc2c(c1)[nH]c1c(C)nccc12"
measurement_label = "IC50"
reported = "> 10 µM"


---

- Tested on: T. gondii RH RFP tachyzoites
- assay.overview: Lytic cycle growth assay (RFP fluorescence)
- Format: cell-based, Toxoplasma gondii
- run.conditions: Toxoplasma gondii, Fibroblast, 96 h
measurement.label: IC50

[[record]]
molecule = "COc1ccc2c(c1)[nH]c1c(C)nccc12 [Compound 1, harmine]"
measurement_label = "IC50"
reported = "> 10 µM"

